The reported measurements were obtained from patent US7335723B2.

# target_system: rat MCH-1R (Rattus norvegicus, UniProt P97639)
# Sequence (P97639 whole entry): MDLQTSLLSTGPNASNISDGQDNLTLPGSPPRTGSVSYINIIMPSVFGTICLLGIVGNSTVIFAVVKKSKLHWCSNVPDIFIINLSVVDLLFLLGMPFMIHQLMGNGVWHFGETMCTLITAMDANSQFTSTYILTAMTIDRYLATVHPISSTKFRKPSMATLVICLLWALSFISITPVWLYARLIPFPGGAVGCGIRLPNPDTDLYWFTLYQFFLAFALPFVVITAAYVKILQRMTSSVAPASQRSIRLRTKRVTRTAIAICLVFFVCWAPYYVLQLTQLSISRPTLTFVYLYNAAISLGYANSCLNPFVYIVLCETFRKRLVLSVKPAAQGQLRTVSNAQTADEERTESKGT
# method_description: Antagonist assay, 293-AEQ17 cells expressing rat MCH-1R
# Type: cell-based
# Set-up: expressed in transfected cells; host or cells: 293-AEQ17 (aequorin-expressing HEK-293 reporter line)
# recorded_conditions: determined per Trends in Pharmacol. Sci. 14:237-239, 1993
Where a SMILES comes first, the peptide text is derived from it. Bridges are numbered along the chain shown (N, C = ends). [ ]: non-standard residue; d: D form. The star is where a group is joined. Pentanoyl(5-guanidino) = NC(N)=NCCCCC(=O)*; dNle = CCCC[C@@H](N)C(=O)O; Ava = NCCCCC(=O)O
property_measured: Kb (nM)

Take a look at these entries with their results.
INSERT INTO measurements (compound, property_measured, measured_value) VALUES
  ('CSCC[C@@H]1NC(=O)[C@@H](NC(=O)CCCCNC(=N)N)CSSC[C@@H](C(=O)O)NC(=O)CCCCNC(=O)CCCCNC(=O)[C@H](Cc2ccc(O)cc2)NC(=O)[C@H](C(C)C)NC(=O)[C@H](CCCNC(=N)N)NC(=O)CNC(=O)[C@H](CC(C)C)NC1=O [SEQ. ID. NO. 18]', 'Kb', 32.9),
  ('CSCC[C@@H]1NC(=O)[C@@H](NC(=O)[C@@H](CCCNC(=N)N)NC(C)=O)CSSC[C@@H](C(N)=O)NC(=O)CCCCNC(=O)CCCCNC(=O)[C@H](Cc2ccc(O)cc2)NC(=O)[C@H](C(C)C)NC(=O)[C@H](CCCNC(=N)N)NC(=O)CCCCNC(=O)CCCCNC1=O [SEQ. ID. NO. 33] (Ac-[dR]CM[Ava][Ava]RVY[Ava][Ava]C-NH2; disulfide 2-11 (inferred); C-terminus assumed)', 'Kb', 6),
  ('CSCC[C@@H]1NC(=O)[C@@H](NC(=O)CCCCNC(=N)N)CSSC[C@@H](C(N)=O)NC(=O)CCCNC(=O)CCCNC(=O)[C@H](Cc2ccc(O)cc2)NC(=O)[C@H](C(C)C)NC(=O)[C@H](CCCNC(=N)N)NC(=O)CNC(=O)[C@H](CC(C)C)NC1=O [SEQ. ID. NO. 13]', 'Kb', 3),
  ('CCCC[C@H]1NC(=O)[C@H](CC(C)C)NC(=O)[C@H](CCSC)NC(=O)[C@@H](NC(=O)CCCCNC(=N)N)CSSC[C@@H](C(N)=O)NC(=O)CCCCNC(=O)CCCCNC(=O)[C@H](Cc2ccc(O)cc2)NC(=O)[C@H](C(C)C)NC(=O)[C@H](CCCNC(=N)N)NC1=O [SEQ. ID. NO. 27] ({Pentanoyl(5-guanidino)}-CML[dNle]RVY[Ava][Ava]C-NH2; disulfide 1-10; C-terminus assumed)', 'Kb', 2.4),
  ('CSCC[C@@H]1NC(=O)[C@@H](NC(=O)CCCCNC(=N)N)CSSC[C@@H](C(N)=O)NC(=O)CCCCNC(=O)CCCCNC(=O)[C@H](Cc2ccc(O)cc2)NC(=O)[C@H](C(C)C)NC(=O)[C@H](CCCNC(=N)N)NC(=O)CCCCNC(=O)CCCCNC1=O [SEQ. ID. NO. 32] ({Pentanoyl(5-guanidino)}-CM[Ava][Ava]RVY[Ava][Ava]C-NH2; disulfide 1-10; C-terminus assumed)', 'Kb', 24);

A = CSCC[C@@H]1NC(=O)[C@@H](NC(=O)CCCCNC(=N)N)CSSC[C@@H](C(N)=O)NC(=O)CCNC(=O)CCNC(=O)[C@H](Cc2ccc(O)cc2)NC(=O)[C@H](C(C)C)NC(=O)[C@H](CCCNC(=N)N)NC(=O)CNC(=O)[C@H](CC(C)C)NC1=O [SEQ. ID. NO. 14]
B = CSCC[C@@H]1NC(=O)[C@@H](NC(=O)CCCCNC(=N)N)CSSC[C@@H](C(N)=O)NC(=O)CCCCNC(=O)CCCCNC(=O)[C@H](Cc2ccc(O)cc2)NC(=O)[C@H](C(C)C)NC(=O)[C@H](CCCNC(=N)N)NC(=O)CNC(=O)[C@H](CC(C)C)NC1=O [SEQ. ID. NO. 11]
Quick one: lower Kb, A or B ? // output: label of the selected item B
